B1: TPR 5TU (parent)
chain: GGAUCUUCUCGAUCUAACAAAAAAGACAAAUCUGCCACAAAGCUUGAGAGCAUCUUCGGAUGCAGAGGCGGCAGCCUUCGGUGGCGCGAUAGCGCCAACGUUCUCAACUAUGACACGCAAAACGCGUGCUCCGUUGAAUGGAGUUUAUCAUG

Variants of: B1
test-protocol: polymerase ribozyme fitness, log enrichment relative to wild type (log ratio); higher = more active; in vitro selection for triplet polymerase activity
Variants at the floor of the assay were thinned out.

- sequence-variant: "G50C C103A C149U"
  relational-operator: "≤"
  polymerase ribozyme fitness (log ratio): -4.2
- sequence-variant: "A24C A30U A52G G58A G68A U82G C93U A98U G100C C125A G126U"
  relational-operator: "≤"
  polymerase ribozyme fitness (log ratio): -4.2
- sequence-variant: "A23U A52C U55A G81U G84A C99A U127C U145G"
  relational-operator: "≤"
  polymerase ribozyme fitness (log ratio): -4.2
- sequence-variant: "G83C C118U"
  relational-operator: "="
  polymerase ribozyme fitness (log ratio): -1.34
- sequence-variant: "G11A C114G G124U"
  relational-operator: "="
  polymerase ribozyme fitness (log ratio): -4.03
- sequence-variant: "G70U C87A A115U C116A U151A"
  relational-operator: "≤"
  polymerase ribozyme fitness (log ratio): -4.2
- sequence-variant: "U6G A30C C43G A52C C54U U77A C85G A119G U148G"
  relational-operator: "≤"
  polymerase ribozyme fitness (log ratio): -4.2
- sequence-variant: "A39C A52G"
  relational-operator: "="
  polymerase ribozyme fitness (log ratio): -2.32
- sequence-variant: "C38U A120U"
  relational-operator: "="
  polymerase ribozyme fitness (log ratio): -0.54
- sequence-variant: "G83A A119C"
  relational-operator: "="
  polymerase ribozyme fitness (log ratio): -2.44
- sequence-variant: "A22C U56A C57G G86U A142G"
  relational-operator: "="
  polymerase ribozyme fitness (log ratio): -3.37
- sequence-variant: "A49C U56A A60U"
  relational-operator: "≤"
  polymerase ribozyme fitness (log ratio): -4.2
- sequence-variant: "U15G C72U C87A U134A A150C U151G"
  relational-operator: "≤"
  polymerase ribozyme fitness (log ratio): -4.2
- sequence-variant: "G59C C95U"
  relational-operator: "="
  polymerase ribozyme fitness (log ratio): 0.0454
- sequence-variant: "C5A C38U G50A A60G C95A C103U G126U"
  relational-operator: "="
  polymerase ribozyme fitness (log ratio): -3.13
- sequence-variant: "G25C C54A C76U G88A"
  relational-operator: "≤"
  polymerase ribozyme fitness (log ratio): -4.2
- sequence-variant: "G42C C79G G124C"
  relational-operator: "≤"
  polymerase ribozyme fitness (log ratio): -4.2
- sequence-variant: "C96U G133A"
  relational-operator: "="
  polymerase ribozyme fitness (log ratio): -3.92
- sequence-variant: "G80A A119U"
  relational-operator: "="
  polymerase ribozyme fitness (log ratio): -0.405
- sequence-variant: "G83C G92A"
  relational-operator: "≤"
  polymerase ribozyme fitness (log ratio): -4.2
- sequence-variant: "U53A U55A C57A C85G A122G"
  relational-operator: "="
  polymerase ribozyme fitness (log ratio): -2.51
- sequence-variant: "A23C A29C U31G U33C C95U C96U A107U U127C A138C"
  relational-operator: "≤"
  polymerase ribozyme fitness (log ratio): -4.2
